Molecular target: T1, soluble cynomolgus monkey IL-6R (cynomolgus monkey, UniProt A0A2K5WN54 60-396)
T1 construct: extracellular domain; also called scyIL-6R; soluble cynomolgus monkey IL-6 Receptor; not shown: C-terminal His- or Avi-Tag
T1 sequence: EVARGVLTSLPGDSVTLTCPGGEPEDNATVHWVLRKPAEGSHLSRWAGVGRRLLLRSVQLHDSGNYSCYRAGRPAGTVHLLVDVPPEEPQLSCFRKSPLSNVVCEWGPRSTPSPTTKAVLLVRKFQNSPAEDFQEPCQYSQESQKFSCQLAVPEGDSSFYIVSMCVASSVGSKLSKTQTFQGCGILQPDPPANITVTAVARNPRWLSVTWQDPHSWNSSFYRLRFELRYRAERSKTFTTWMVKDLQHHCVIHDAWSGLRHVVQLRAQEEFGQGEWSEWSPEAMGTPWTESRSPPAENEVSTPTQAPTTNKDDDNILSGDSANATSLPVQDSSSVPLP
Assay: SPR (Biacore 2000), mAb captured on anti-human IgG Fc, analyte in solution, 25 C, 1:1 Langmuir
quantityKind: kon (M⁻¹ s⁻¹)
The answer is to be given in M⁻¹ s⁻¹; state only the numeric part.

In the examples that follow, each entry is paired with its recorded kon.
NI-1201 wild type (NI-1201-WT) antibody (antibody, V domains shown, Fully human monoclonal IgG (captured by anti-human IgG Fc in Biacore); also called 39B9 VL1) VH: QVQLVQSGAEVKKPGSSVKVSCKASGGTFSSYAISWVRQAPGQGLEWMGGIIPLFDTTKYAQQFQGRVTITADESTSTAYMELSSLRSEDTAVFYCARDRDILTDYYPMGGMDVWGQGTTVTVSS VL: AIQLTQSPSSLSASVGDRVTITCRASQGISSVLAWYQQKPGKAPKLLIYDASSLESGVPSRFSGSGSGTDFTLTISSLQPEDFATYYCQQSNSYPLTFGGGTKVEIKR: 106000
NI-1201-A antibody (antibody, V domains shown) VH: QVQLVQSGAEVKKPGSSVKVSCKASGGTFSSYAISWVRQAPGQGLEWMGGIIPLFDTTKYAQKFQGRVTITADESTSTAYMELSSLRSEDTAVYYCARDRDILTDYYPMGGMDVWGQGTTVTVSS VL: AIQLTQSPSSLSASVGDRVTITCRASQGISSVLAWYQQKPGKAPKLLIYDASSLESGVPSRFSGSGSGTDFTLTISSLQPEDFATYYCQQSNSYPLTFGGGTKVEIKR: 104000
NI-1201-B antibody (antibody, V domains shown) VH: QVQLVQSGAEVKKPGSSVKVSCKASGGTFSSYAISWVRQAPGQGLEWMGGIIPLFDTTKYAQKFQGRVTITADESTSTAYMELSSLRSEDTAVYYCARDRDILTDYYPLGGMDVWGQGTTVTVSS VL: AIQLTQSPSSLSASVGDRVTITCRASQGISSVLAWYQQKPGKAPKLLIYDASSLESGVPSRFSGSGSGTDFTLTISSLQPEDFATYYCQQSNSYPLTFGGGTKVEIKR: 115000

Give the measured kon for NI-1201-D antibody (antibody, V domains shown) VH: QVQLVQSGAEVKKPGSSVKVSCKASGGTFSSYAISWVRQAPGQGLEWMGGIIPAFETTKYAQKFQGRVTITADESTSTAYMELSSLRSEDTAVYYCARDRDILTDYYPLGGMDVWGQGTTVTVSS VL: AIQLTQSPSSLSASVGDRVTITCRASQGISSVLAWYQQKPGKAPKLLIYDASSLESGVPSRFSGSGSGTDFTLTISSLQPEDFATYYCQQSQSYPLTFGGGTKVEIKR
112000
